Cited source: ChEMBL document CHEMBL3988442

# Organism: Homo sapiens
# PROCEDURE_SUMMARY: To identify inhibition of the IFN signalling (Jak-Stat) pathway via expression of an eGFP reporter gene under the control of an IFN-stimulated response element (ISRE) containing MxA promoter.
# Format: functional
# Parameters: scale not given: direction of the effect not stated beside the values
# TEST_CONTEXT: 30 µM
Reported Percent Effect is given for each of the following compounds.
# include the unit after the value

[
  {
    "COMPOUND": "COc1cccc(CN(C)C(=O)CN2CCN(c3nccn3C)CC2)c1",
    "Percent Effect": "1.29%"
  },
  {
    "COMPOUND": "Cc1nnsc1C(=O)N1CCC2(CC1)c1nc[nH]c1CCN2CC(C)C",
    "Percent Effect": "-1.57%"
  },
  {
    "COMPOUND": "Cc1nn(C)c(C)c1C1CCCN1C(=O)c1cnc2n[nH]c(C)c2c1 (centres undefined)",
    "Percent Effect": "9.61%"
  }
]

Request: Entry under review: `Nc1nccc(N2CCC(Cc3ccccc3Cl)(C(=O)O)CC2)n1` . Reported Percent Effect?
Response: -0.891%
